These data points were gathered from patent US20110123544A1.

# assay.system: T1, recombinant human interleukin 12 (p40/p35 heterodimer) (human, UniProt P29460 23-328; P29459 23-219)
# T1 chain 1: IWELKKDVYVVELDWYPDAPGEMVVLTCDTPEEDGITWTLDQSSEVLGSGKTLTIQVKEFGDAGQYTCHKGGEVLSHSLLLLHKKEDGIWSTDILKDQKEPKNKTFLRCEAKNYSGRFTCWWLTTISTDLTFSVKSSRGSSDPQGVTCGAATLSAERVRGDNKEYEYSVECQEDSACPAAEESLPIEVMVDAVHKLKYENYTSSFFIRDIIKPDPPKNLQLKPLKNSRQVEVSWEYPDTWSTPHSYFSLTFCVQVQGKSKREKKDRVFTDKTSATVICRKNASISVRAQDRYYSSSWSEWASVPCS
# T1 chain 2: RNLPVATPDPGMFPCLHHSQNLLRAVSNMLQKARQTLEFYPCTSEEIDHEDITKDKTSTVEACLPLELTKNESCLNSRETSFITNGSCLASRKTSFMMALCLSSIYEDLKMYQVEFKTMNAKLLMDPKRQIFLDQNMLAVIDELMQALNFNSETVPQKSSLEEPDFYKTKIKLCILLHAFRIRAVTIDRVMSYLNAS
# method: BIAcore
So I've got a bunch of binders here, and I need their koff values.
Answer in s⁻¹, number only, no unit symbol.

Which koff is reported for this binder? FTFSSYMMH [Y61 H33 M]
0.000215

Further, for FTFSTYGMH [Y61 H31 T] ?
0.000716

Same read-out for FTFSSCGMH [Y61 H32 C] ?
0.00383
